Target Or System: Sigma non-opioid intracellular receptor 1 (Rattus norvegicus, UniProt Q9R0C9)
Sequence (Q9R0C9 whole entry): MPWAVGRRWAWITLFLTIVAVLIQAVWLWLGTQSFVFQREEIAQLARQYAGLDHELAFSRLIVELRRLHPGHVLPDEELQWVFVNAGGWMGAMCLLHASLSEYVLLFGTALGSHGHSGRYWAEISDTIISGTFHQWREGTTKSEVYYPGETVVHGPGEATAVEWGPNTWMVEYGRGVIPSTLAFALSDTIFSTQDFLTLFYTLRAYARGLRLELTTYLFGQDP
Experiment Summary: Displacement of [3H]-pentazocine from sigma 1 receptor in male Sprague-Dawley rat liver membrane assessed as inhibition constant by liquid scintillation counter analysis
pKi: −log10 of the molar value.

>  <Compound>
COC(=O)CCN1CC[C@]2(C)c3cc(O)ccc3C[C@H]1[C@H]2C

>  <Relation Symbol>
<

>  <pKi>
5.00

$$$$
>  <Compound>
COC(=O)CCCN1CC[C@]2(C)c3cc(O)ccc3C[C@H]1[C@H]2C

>  <Relation Symbol>
=

>  <pKi>
6.80

$$$$
>  <Compound>
C[C@@H]1[C@@H]2Cc3ccc(O)cc3[C@@]1(C)CCN2CCCC(C(=O)O)c1ccccc1 (mixture of isomers)

>  <Relation Symbol>
<

>  <pKi>
5.00

$$$$
>  <Compound>
C[C@@H]1[C@@H]2Cc3ccc(O)cc3[C@@]1(C)CCN2CCCC(=O)O

>  <Relation Symbol>
<

>  <pKi>
5.00

$$$$
>  <Compound>
CCOC(=O)C(CCN1CC[C@]2(C)c3cc(O)ccc3C[C@H]1[C@H]2C)c1ccccc1 (mixture of isomers)

>  <Relation Symbol>
=

>  <pKi>
7.56

$$$$
>  <Compound>
C[C@@H]1[C@@H]2Cc3ccc(O)cc3[C@@]1(C)CCN2CCC(=O)O

>  <Relation Symbol>
<

>  <pKi>
5.00

$$$$
>  <Compound>
C[C@@H]1[C@@H]2Cc3ccc(O)cc3[C@@]1(C)CCN2CCC(C(=O)O)c1ccccc1 (mixture of isomers)

>  <Relation Symbol>
<

>  <pKi>
5.00

$$$$
>  <Compound>
CCOC(=O)C(CN1CC[C@]2(C)c3cc(O)ccc3C[C@H]1[C@H]2C)c1ccccc1 (mixture of isomers)

>  <Relation Symbol>
<

>  <pKi>
5.00

$$$$
>  <Compound>
CCOC(=O)C(CCCN1CC[C@]2(C)c3cc(O)ccc3C[C@H]1[C@H]2C)c1ccccc1 (mixture of isomers)

>  <Relation Symbol>
=

>  <pKi>
6.23

$$$$
>  <Compound>
C[C@@H]1[C@@H]2Cc3ccc(O)cc3[C@@]1(C)CCN2CC(C(=O)O)c1ccccc1 (mixture of isomers)

>  <Relation Symbol>
=

>  <pKi>
6.18

$$$$

====

Target Or System: Delta-type opioid receptor (Rattus norvegicus, UniProt P33533)
Sequence (P33533 whole entry): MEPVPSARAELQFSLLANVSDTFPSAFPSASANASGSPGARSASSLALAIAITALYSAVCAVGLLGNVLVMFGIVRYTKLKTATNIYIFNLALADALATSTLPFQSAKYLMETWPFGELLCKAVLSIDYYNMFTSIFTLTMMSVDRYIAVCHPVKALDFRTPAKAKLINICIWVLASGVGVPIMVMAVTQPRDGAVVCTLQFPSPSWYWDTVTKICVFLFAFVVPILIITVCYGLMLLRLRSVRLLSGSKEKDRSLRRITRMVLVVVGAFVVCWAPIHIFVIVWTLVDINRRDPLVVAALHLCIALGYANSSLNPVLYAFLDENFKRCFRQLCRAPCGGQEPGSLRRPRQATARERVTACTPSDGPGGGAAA
Experiment Summary: Displacement of [3H]-Deltorphin from DOR in male Sprague-Dawley rat brain membrane assessed as inhibition constant incubated for 45 mins by liquid scintillation counter analysis

>  <Molecule>
COC(=O)CCCN1CC[C@]2(C)c3cc(O)ccc3C[C@H]1[C@H]2C

>  <Ki>
> 5 µM

$$$$
>  <Molecule>
CCOC(=O)C(CN1CC[C@]2(C)c3cc(O)ccc3C[C@H]1[C@H]2C)c1ccccc1 (mixture of isomers)

>  <Ki>
> 5 µM

$$$$
>  <Molecule>
C[C@@H]1[C@@H]2Cc3ccc(O)cc3[C@@]1(C)CCN2CCCC(=O)O

>  <Ki>
> 5 µM

$$$$
>  <Molecule>
C[C@@H]1[C@@H]2Cc3ccc(O)cc3[C@@]1(C)CCN2CCCC(C(=O)O)c1ccccc1 (mixture of isomers)

>  <Ki>
> 5 µM

$$$$

====

pKi: −log10 of the molar value.
Entries with reported pKi on Mu-type opioid receptor (Rattus norvegicus)
Sequence (P33535 whole entry): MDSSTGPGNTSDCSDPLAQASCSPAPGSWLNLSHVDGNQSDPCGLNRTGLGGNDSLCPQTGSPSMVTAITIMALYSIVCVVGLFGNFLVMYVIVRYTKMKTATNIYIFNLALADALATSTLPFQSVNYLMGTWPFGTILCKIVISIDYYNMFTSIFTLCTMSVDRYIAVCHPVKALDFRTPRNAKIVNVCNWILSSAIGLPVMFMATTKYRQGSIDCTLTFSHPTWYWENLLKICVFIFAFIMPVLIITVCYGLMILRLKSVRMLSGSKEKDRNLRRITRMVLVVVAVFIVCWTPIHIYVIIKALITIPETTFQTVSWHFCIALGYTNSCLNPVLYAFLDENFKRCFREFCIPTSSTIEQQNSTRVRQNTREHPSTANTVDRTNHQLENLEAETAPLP
Experimental Endpoint: pKi

>  <Structure As Smiles>
C[C@@H]1[C@@H]2Cc3ccc(O)cc3[C@@]1(C)CCN2CCC(=O)O

>  <Target Or System>
Mu-type opioid receptor (Rattus norvegicus)

>  <Experimental Value>
< 5.30

$$$$
>  <Structure As Smiles>
COC(=O)CCN1CC[C@]2(C)c3cc(O)ccc3C[C@H]1[C@H]2C

>  <Target Or System>
Mu-type opioid receptor (Rattus norvegicus)

>  <Experimental Value>
< 5.30

$$$$
>  <Structure As Smiles>
C[C@@H]1[C@@H]2Cc3ccc(O)cc3[C@@]1(C)CCN2CCCC(=O)O

>  <Target Or System>
Mu-type opioid receptor (Rattus norvegicus)

>  <Experimental Value>
< 5.30

$$$$
